Conditions: in isopropanol, 288.15 K
result type: solubility (mole fraction)

Requested read-out: solubility (mole fraction). Entry: Nc1cnc(Br)cn1 0.0034

====

Settings: in n-butanol, 323.15 K
result type: solubility (mole fraction)
// no unit, no text: just the number

Requested read-out: solubility (mole fraction). Entry: Nc1cnc(Br)cn1 0.0145

Reference source: BigSolDB 2.1
